system.tested: BuChE (Homo sapiens)
method.description: biochemical
Assay type: biochemical
assay.context: read-out: IC50BuChE
Simple rule here: IC50 less than 2 µM is condition met, otherwise condition not met.

compound	class.assignment
O=[N+]([O-])c1ccccc1-c1csc(N/N=C(/CSc2nc3ccccc3[nH]2)c2ccc(Cl)c(Cl)c2)n1 [compound 17]	condition met
Cc1ccc(/C(CSc2nc3ccccc3[nH]2)=N\Nc2nc(-c3ccc(Cl)c(Cl)c3)cs2)cc1 [compound 11]	condition met
Cc1ccc(-c2csc(N/N=C(/CSc3nc4ccccc4[nH]3)c3ccccc3[N+](=O)[O-])n2)cc1 [compound 13]	condition not met
Clc1ccc(-c2csc(N/N=C(/CSc3nc4ccccc4[nH]3)c3ccccc3)n2)cc1Cl [compound 6]	condition met
O=[N+]([O-])c1ccccc1/C(CSc1nc2ccccc2[nH]1)=N\Nc1nc(-c2ccc(O)cc2)cs1 [compound 16]	condition met
Cc1ccc(/C(CSc2nc3ccccc3[nH]2)=N\Nc2nc(-c3ccccc3[N+](=O)[O-])cs2)cc1 [compound 7]	condition not met

====

system.tested: AChE (Homo sapiens, UniProt P22303)
Sequence (P22303 32-614): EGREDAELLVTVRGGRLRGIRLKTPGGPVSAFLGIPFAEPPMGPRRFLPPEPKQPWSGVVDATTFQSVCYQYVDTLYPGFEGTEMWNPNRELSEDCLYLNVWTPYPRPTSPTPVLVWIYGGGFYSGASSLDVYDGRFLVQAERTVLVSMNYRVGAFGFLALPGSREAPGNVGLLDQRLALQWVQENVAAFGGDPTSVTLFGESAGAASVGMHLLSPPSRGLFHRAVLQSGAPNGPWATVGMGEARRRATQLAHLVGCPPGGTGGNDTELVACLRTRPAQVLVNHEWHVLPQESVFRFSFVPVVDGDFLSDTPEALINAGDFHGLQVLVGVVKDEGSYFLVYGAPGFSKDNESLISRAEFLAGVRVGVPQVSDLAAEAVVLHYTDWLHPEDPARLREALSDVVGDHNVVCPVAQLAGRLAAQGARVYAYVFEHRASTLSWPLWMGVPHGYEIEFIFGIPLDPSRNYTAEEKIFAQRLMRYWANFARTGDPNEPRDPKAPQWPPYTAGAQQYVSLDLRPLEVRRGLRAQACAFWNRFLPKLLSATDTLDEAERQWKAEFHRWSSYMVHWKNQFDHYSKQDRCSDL
method.description: biochemical
Type: biochemical
assay.context: AChE and BuChE IC50 values
Simple rule here: Selectivity Index less than 2 is YES, otherwise NO.

test.smiles	system.tested	class.assignment
Cc1ccc(/C(CSc2nc3ccccc3[nH]2)=N\Nc2nc(-c3cccc([N+](=O)[O-])c3)cs2)cc1	AChE (Homo sapiens, UniProt P22303)	YES
Cc1ccc(/C(CSc2nc3ccccc3[nH]2)=N\Nc2nc(-c3ccc(C)cc3)cs2)cc1	AChE (Homo sapiens, UniProt P22303)	YES
O=[N+]([O-])c1ccccc1/C(CSc1nc2ccccc2[nH]1)=N\Nc1nc(-c2ccc(Cl)c(Cl)c2)cs1	AChE (Homo sapiens, UniProt P22303)	NO
COc1cccc(-c2csc(N/N=C(/CSc3nc4ccccc4[nH]3)c3ccc(Cl)c(Cl)c3)n2)c1	AChE (Homo sapiens, UniProt P22303)	YES
Cc1ccc(/C(CSc2nc3ccccc3[nH]2)=N\Nc2nc(-c3ccc(Cl)c(Cl)c3)cs2)cc1	AChE (Homo sapiens, UniProt P22303)	NO
Cc1ccc(-c2csc(N/N=C(/CSc3nc4ccccc4[nH]3)c3ccccc3[N+](=O)[O-])n2)cc1	AChE (Homo sapiens, UniProt P22303)	YES

====

Reported values of IC50 for individual entries
system.tested: UniProt:P06276
method.description: biochemical
Type: biochemical
endpoint.label: IC50

compound	system.tested	experimental.value
O=[N+]([O-])c1cc(O)c(Cl)cc1-c1csc(N/N=C(/CSc2nc3ccccc3[nH]2)c2cccc(O)c2[N+](=O)[O-])n1 [compound 9]	UniProt:P06276	3.2 µM
Cc1ccc(/C(CSc2nc3ccccc3[nH]2)=N\Nc2nc(-c3cc(Cl)c(O)cc3[N+](=O)[O-])cs2)c([N+](=O)[O-])c1 [compound 12]	UniProt:P06276	2.1 µM

====

system.tested: BuChE (Homo sapiens, UniProt P06276)
Sequence (P06276 29-602): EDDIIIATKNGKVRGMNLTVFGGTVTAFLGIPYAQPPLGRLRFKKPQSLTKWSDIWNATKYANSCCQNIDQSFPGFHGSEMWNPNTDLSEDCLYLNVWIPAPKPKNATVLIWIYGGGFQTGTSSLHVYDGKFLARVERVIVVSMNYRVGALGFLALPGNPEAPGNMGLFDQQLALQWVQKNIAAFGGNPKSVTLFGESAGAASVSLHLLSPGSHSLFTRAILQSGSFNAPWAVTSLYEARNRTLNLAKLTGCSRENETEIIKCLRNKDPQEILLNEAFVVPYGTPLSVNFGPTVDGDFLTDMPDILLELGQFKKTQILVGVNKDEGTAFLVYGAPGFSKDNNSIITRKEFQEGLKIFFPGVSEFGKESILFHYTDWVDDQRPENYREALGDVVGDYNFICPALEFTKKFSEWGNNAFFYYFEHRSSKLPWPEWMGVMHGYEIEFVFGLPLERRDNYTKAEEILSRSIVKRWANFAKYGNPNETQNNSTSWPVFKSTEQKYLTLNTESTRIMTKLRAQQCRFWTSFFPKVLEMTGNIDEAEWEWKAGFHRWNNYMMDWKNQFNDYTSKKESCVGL
method.description: biochemical
Type: biochemical
assay.context: read-out: IC50BuChE
Experimental: The inhibition of AChE and BChE was determined using a method described earlier. Briefly, the stock solutions (1 mg/mL) of test analogues were prepared using DMSO. […] The absorbance was measured using a microplate reader at a 410 nm wavelength against the blank reading containing 10μL DMSO instead of the test compound (the solution contained 5% DMSO and 95% water). % Inhibition = (Absorbance of control—Absorbance of compound)/Absorbance of control × 100
pIC50: −log10 of the molar value.

compound	system.tested	pIC50
O=[N+]([O-])c1cccc(-c2csc(N/N=C(/CSc3nc4ccccc4[nH]3)c3ccc(Cl)c(Cl)c3)n2)c1 [compound 18]	BuChE (Homo sapiens, UniProt P06276)	5.92
O=[N+]([O-])c1ccccc1/C(CSc1nc2ccccc2[nH]1)=N\Nc1nc(-c2ccc(Cl)c(Cl)c2)cs1 [compound 15]	BuChE (Homo sapiens, UniProt P06276)	6.15
Cc1ccc(-c2csc(N/N=C(/CSc3nc4ccccc4[nH]3)c3ccccc3)n2)cc1 [compound 5]	BuChE (Homo sapiens, UniProt P06276)	4.97
COc1cccc(-c2csc(N/N=C(/CSc3nc4ccccc4[nH]3)c3ccccc3[N+](=O)[O-])n2)c1 [compound 14]	BuChE (Homo sapiens, UniProt P06276)	5.38
Clc1ccc(/C(CSc2nc3ccccc3[nH]2)=N\Nc2nc(-c3ccc(Cl)c(Cl)c3)cs2)cc1Cl [compound 21]	BuChE (Homo sapiens, UniProt P06276)	6.70
COc1cccc(-c2csc(N/N=C(/CSc3nc4ccccc4[nH]3)c3ccccc3)n2)c1 [compound 4]	BuChE (Homo sapiens, UniProt P06276)	5.28
Cc1ccc(/C(CSc2nc3ccccc3[nH]2)=N\Nc2nc(-c3cccc([N+](=O)[O-])c3)cs2)cc1 [compound 8]	BuChE (Homo sapiens, UniProt P06276)	5.10

====

Reported values of Selectivity Index for individual entries
system.tested: AChE (Homo sapiens)
method.description: biochemical
Type: biochemical
assay.context: AChE and BuChE IC50 values

test.smiles	system.tested	Selectivity Index
Clc1ccc(-c2csc(N/N=C(/CSc3nc4ccccc4[nH]3)c3ccccc3)n2)cc1Cl	AChE (Homo sapiens)	2.0
Cc1ccc(-c2csc(N/N=C(/CSc3nc4ccccc4[nH]3)c3ccc(Cl)c(Cl)c3)n2)cc1	AChE (Homo sapiens)	0.92
Cc1ccc(/C(CSc2nc3ccccc3[nH]2)=N\Nc2nc(-c3cc(Cl)c(O)cc3[N+](=O)[O-])cs2)c([N+](=O)[O-])c1	AChE (Homo sapiens)	1.5
Oc1ccc(-c2csc(N/N=C(/CSc3nc4ccccc4[nH]3)c3ccccc3)n2)cc1	AChE (Homo sapiens)	2.25

====

system.tested: UniProt P22303
method.description: biochemical
Format: biochemical
assay.context: AChE and BuChE IC50 values
Simple rule here: Selectivity Index less than 2 is Yes, otherwise No.

test.smiles	class.assignment
O=[N+]([O-])c1cccc(-c2csc(N/N=C(/CSc3nc4ccccc4[nH]3)c3ccc(Cl)c(Cl)c3)n2)c1	Yes
COc1ccccc1-c1csc(N/N=C(/CSc2nc3ccccc3[nH]2)c2ccc(Cl)c(Cl)c2)n1	Yes
O=[N+]([O-])c1cc(O)c(Cl)cc1-c1csc(N/N=C(/CSc2nc3ccccc3[nH]2)c2cccc(O)c2[N+](=O)[O-])n1	No
Clc1ccc(/C(CSc2nc3ccccc3[nH]2)=N\Nc2nc(-c3ccc(Br)cc3)cs2)cc1Cl	Yes
O=[N+]([O-])c1ccccc1/C(CSc1nc2ccccc2[nH]1)=N\Nc1nc(-c2ccc(O)cc2)cs1	No
Cc1ccc(-c2csc(N/N=C(/CSc3nc4ccccc4[nH]3)c3ccccc3)n2)cc1	Yes
O=[N+]([O-])c1ccccc1-c1csc(N/N=C(/CSc2nc3ccccc3[nH]2)c2ccc(Cl)c(Cl)c2)n1	Yes
COc1cccc(-c2csc(N/N=C(/CSc3nc4ccccc4[nH]3)c3ccccc3[N+](=O)[O-])n2)c1	Yes
Cc1ccc(/C(CSc2nc3ccccc3[nH]2)=N\Nc2nc(-c3ccccc3[N+](=O)[O-])cs2)cc1	Yes
COc1cccc(-c2csc(N/N=C(/CSc3nc4ccccc4[nH]3)c3ccccc3)n2)c1	Yes

====

system.tested: AChE (Homo sapiens, UniProt P22303)
method.description: biochemical
Assay type: biochemical
assay.context: read-out: IC50AChE
Classification field. Basis: IC50. Definitions: bin A = under 700 nM, bin B = from 700 nM up to 3000 nM, bin C = 3000 nM and over

compound	class.assignment
Cc1ccc(/C(CSc2nc3ccccc3[nH]2)=N\Nc2nc(-c3ccc(C)cc3)cs2)cc1 [compound 24]	bin C
Cc1ccc(/C(CSc2nc3ccccc3[nH]2)=N\Nc2nc(-c3ccc(Cl)c(Cl)c3)cs2)cc1 [compound 11]	bin A
O=[N+]([O-])c1ccccc1-c1csc(N/N=C(/CSc2nc3ccccc3[nH]2)c2ccc(Cl)c(Cl)c2)n1 [compound 17]	bin B
COc1cccc(-c2csc(N/N=C(/CSc3nc4ccccc4[nH]3)c3ccccc3)n2)c1 [compound 4]	bin C
Cc1ccc(/C(CSc2nc3ccccc3[nH]2)=N\Nc2nc(-c3cccc([N+](=O)[O-])c3)cs2)cc1 [compound 8]	bin C
O=[N+]([O-])c1ccccc1/C(CSc1nc2ccccc2[nH]1)=N\Nc1nc(-c2ccc(Cl)c(Cl)c2)cs1 [compound 15]	bin A
Oc1ccc(-c2csc(N/N=C(/CSc3nc4ccccc4[nH]3)c3ccccc3)n2)cc1 [compound 3]	bin B
Clc1ccc(/C(CSc2nc3ccccc3[nH]2)=N\Nc2nc(-c3ccc(Cl)c(Cl)c3)cs2)cc1Cl [compound 21]	bin A
Cc1ccc(-c2csc(N/N=C(/CSc3nc4ccccc4[nH]3)c3ccc(Cl)c(Cl)c3)n2)cc1 [compound 19]	bin B
Cc1ccc(-c2csc(N/N=C(/CSc3nc4ccccc4[nH]3)c3ccccc3)n2)cc1 [compound 5]	bin C
COc1ccccc1-c1csc(N/N=C(/CSc2nc3ccccc3[nH]2)c2ccc(Cl)c(Cl)c2)n1 [compound 22]	bin A
COc1cccc(-c2csc(N/N=C(/CSc3nc4ccccc4[nH]3)c3ccccc3[N+](=O)[O-])n2)c1 [compound 14]	bin C
O=[N+]([O-])c1cc(O)c(Cl)cc1-c1csc(N/N=C(/CSc2nc3ccccc3[nH]2)c2ccccc2O)n1 [compound 2]	bin B
COc1cccc(-c2csc(N/N=C(/CSc3nc4ccccc4[nH]3)c3ccc(Cl)c(Cl)c3)n2)c1 [compound 20]	bin B
Cc1ccc(/C(CSc2nc3ccccc3[nH]2)=N\Nc2nc(-c3ccccc3[N+](=O)[O-])cs2)cc1 [compound 7]	bin B
Cc1ccc(-c2csc(N/N=C(/CSc3nc4ccccc4[nH]3)c3ccccc3[N+](=O)[O-])n2)cc1 [compound 13]	bin C
O=[N+]([O-])c1ccccc1/C(CSc1nc2ccccc2[nH]1)=N\Nc1nc(-c2ccc(O)cc2)cs1 [compound 16]	bin A
Clc1ccc(/C(CSc2nc3ccccc3[nH]2)=N\Nc2nc(-c3ccc(Br)cc3)cs2)cc1Cl [compound 23]	bin C
